Target: human AT1R (Homo sapiens)
Sequence (P30556 whole entry): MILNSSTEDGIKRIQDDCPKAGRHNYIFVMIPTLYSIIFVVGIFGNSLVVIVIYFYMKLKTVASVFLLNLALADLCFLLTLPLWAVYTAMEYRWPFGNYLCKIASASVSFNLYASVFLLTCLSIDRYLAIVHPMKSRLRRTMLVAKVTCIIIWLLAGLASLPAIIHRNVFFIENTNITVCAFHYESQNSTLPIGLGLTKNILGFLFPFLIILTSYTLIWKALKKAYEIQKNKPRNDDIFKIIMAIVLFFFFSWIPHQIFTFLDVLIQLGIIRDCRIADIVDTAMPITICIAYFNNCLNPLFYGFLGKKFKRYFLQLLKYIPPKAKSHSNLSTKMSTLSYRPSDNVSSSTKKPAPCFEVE
Test: beta-arrestin2 recruitment assay (PathHunter), human AT1R
Format: cell-based
Conditions: read-out: pEC50 (converted)
Where a SMILES comes first, the peptide text is derived from it. [ ]: non-standard residue; d: D form. Ac6c = NC1(C(=O)O)CCCCC1; Sar = CNCC(=O)O
Below, each entry is listed with its recorded EC50.

// worked examples, EC50 included
CNCC(=O)N[C@@H](CCCNC(=N)N)C(=O)N[C@H](C(=O)N[C@@H](Cc1ccc(O)cc1)C(=O)NC1(C(=O)N[C@@H](Cc2c[nH]cn2)C(=O)N2CCC[C@H]2C(=O)O)CCCCC1)C(C)C [SEQ ID NO: 41, Sar-Arg-Val-Tyr-cyHex-His-Pro] (H-[Sar]RVY[Ac6c]HP-OH)	> 3.16 nM
CNCC(=O)N[C@@H](CCCNC(=N)N)C(=O)N[C@H](C(=O)N[C@@H](Cc1ccc(O)cc1)C(=O)NC1(C(=O)N[C@@H](Cc2c[nH]cn2)C(=O)N2CCC[C@H]2C(=O)N[C@@H](CC(=O)O)C(=O)O)CCCCC1)C(C)C [SEQ ID NO: 44, Sar-Arg-Val-Tyr-cyHex-His-Pro-Asp] (H-[Sar]RVY[Ac6c]HPD-OH)	> 3.16 nM

// next item, EC50 requested
// lookup EC50 for CNCC(=O)N[C@@H](CCCNC(=N)N)C(=O)N[C@H](C(=O)N[C@@H](Cc1ccc(O)cc1)C(=O)NC1(C(=O)N[C@@H](Cc2c[nH]cn2)C(=O)N2CCC[C@H]2C(=O)N[C@@H](C)C(=O)O)CCCC1)C(C)C
> 3.16 nM

Source of measurements: patent US8946142B2
